System: Plasmodium falciparum
Experiment: MMV: P. falciparum NF54 functionally mature Stage V gametocytes were incubated for 24 hr in the presence of the test compounds. Gamete formation was then triggered by addition of 2uM xantheurenic acid and temperature decrease to ~20C. Male gamete exflagellation was recorded and analysed by automated microscopy after 20 min. All compounds were tested in 4 independent experiments and data presented here is the mean.
Assay type: functional
Set-up: concentration or dose not given beside the values
Assign satisfied whenever inhibition does not fall below 10%; assign not satisfied whenever it does.

Textbook exercise: given the entry Cc1cc(NC(=O)c2cccc(C(F)(F)F)c2)n(-c2nc(-c3ccc4c(c3)OCO4)cs2)n1 , state whether its inhibition is greater than or equal to 10%.
satisfied

Textbook exercise: given the entry Cc1cc(NCCN2CCCCC2)c2ccc3ccccc3c2n1 , state whether its inhibition is greater than or equal to 10%.
not satisfied

Textbook exercise: given the entry CC(=O)c1ccc(NC(=O)CSc2nc(-c3ccccc3Cl)ns2)cc1 , state whether its inhibition is greater than or equal to 10%.
satisfied

Textbook exercise: given the entry CCOc1ccccc1NC(=O)CN1CCN(C(=O)c2ccco2)CC1 , state whether its inhibition is greater than or equal to 10%.
satisfied

Textbook exercise: given the entry CCOc1ccc(Nc2c3ccccc3nc3ccccc23)cc1.Cl , state whether its inhibition is greater than or equal to 10%.
satisfied

Textbook exercise: given the entry O=C(Nc1ccc(Br)cc1)Nc1cccc(Cl)c1 , state whether its inhibition is greater than or equal to 10%.
satisfied

Textbook exercise: given the entry O=C(Nc1nc(-c2ccccn2)cs1)c1ccccc1Br , state whether its inhibition is greater than or equal to 10%.
not satisfied

Textbook exercise: given the entry Cc1cc(N2CCN(C3CCCC3)CC2)n2c(nc3ccccc32)c1C#N , state whether its inhibition is greater than or equal to 10%.
not satisfied

Textbook exercise: given the entry O=C1c2ccccc2-c2nnc(-c3ccc(Br)cc3)cc21 , state whether its inhibition is greater than or equal to 10%.
satisfied

Textbook exercise: given the entry CC1CCN(Cc2c(O)ccc3cc(-c4nc5ccccc5s4)c(=O)oc23)CC1 , state whether its inhibition is greater than or equal to 10%.
not satisfied

Textbook exercise: given the entry CCCCCCc1cc2cc(-c3csc(C=Cc4ccccc4)n3)c(=O)oc2cc1O , state whether its inhibition is greater than or equal to 10%.
not satisfied

###

Consider the following molecules; for each one, report its inhibition.
Test system: Plasmodium falciparum
Assay: MMV: P. falciparum NF54 functionally mature Stage V gametocytes were incubated for 24 hr in the presence of the test compounds. Gamete formation was then triggered by addition of 2uM xantheurenic acid and temperature decrease to ~20C. Male gamete exflagellation was recorded and analysed by automated microscopy after 20 min. All compounds were tested in 4 independent experiments and data presented here is the mean.
Type: functional
Parameters: concentration or dose not given beside the values
Field format: number, assumed %, no unit text.

Given the molecule O=C(CCc1ccco1)NC1CCN(CC2(c3ccc(Cl)cc3)CCC2)CC1 , what is its reported inhibition?
39.4

Given the molecule Cc1sc2ncnc(Sc3nc4ccccc4[nH]3)c2c1C , what is its reported inhibition?
30.8

Given the molecule CN1c2ccccc2N(C)C1c1ccc2c(c1)OCO2 , what is its reported inhibition?
8.56

Given the molecule CCN(CC)CCCNc1nc(-c2ccc(Cl)cc2)nc2ccccc12 , what is its reported inhibition?
-49.2

Given the molecule CCOC(=O)c1cn(CC)c2cc(N3CCCCC3)c(F)cc2c1=O , what is its reported inhibition?
92.4

Given the molecule COc1ccc(CCN2C(=O)c3[nH]nc(-c4cc(Cl)c(C)cc4O)c3C2c2ccccc2F)cc1 (configuration not stated) , what is its reported inhibition?
-17.3

Given the molecule Cc1ccccc1OCCSc1nc2ccc(NC(=O)c3cccs3)cc2s1 , what is its reported inhibition?
11.6

Given the molecule FC(F)(F)c1cccc(Nc2nc(-c3ccccc3)nc3ncccc23)c1 , what is its reported inhibition?
10.8

Given the molecule COc1ccc(CN2CCN(Cc3ccccc3)CC2)c(O)c1 , what is its reported inhibition?
-11.1

Given the molecule COc1ccc(C(O)(CCC(C)C)C(CN2CCOCC2)c2ccc(Cl)cc2)cc1.Cl (configuration not stated) , what is its reported inhibition?
-0.282

Given the molecule CCCCOC(=O)c1ccc(Nc2cc(C)nc3ccc(OC)cc23)cc1 , what is its reported inhibition?
-6.31

Given the molecule CCOc1c(Cl)cc(CNCC(O)c2ccccc2)cc1OC (configuration not stated) , what is its reported inhibition?
-11.9

Given the molecule CCc1ccc(CNCC(O)c2ccccc2)cc1.Cl (configuration not stated) , what is its reported inhibition?
-40.9

Given the molecule Fc1ccc2[nH]c3c(NCCCN4CCOCC4)ncnc3c2c1 , what is its reported inhibition?
14.8

Given the molecule CNCCCNc1ccnc2cc(Cl)ccc12 , what is its reported inhibition?
-17.2

Given the molecule COc1ccc(-c2nc3cc(Cc4ccc5[nH]c(-c6ccc(OC)cc6)nc5c4)ccc3[nH]2)cc1 , what is its reported inhibition?
28.3

Given the molecule O=C(Nc1ccc(N2CCCCC2)c(Cl)c1)c1ccc(Br)o1 , what is its reported inhibition?
41.2

Given the molecule COc1ccc(C2c3ccc4ccccc4c3Oc3ncn(CCCN(C)C)c(=N)c32)cc1 (configuration not stated) , what is its reported inhibition?
83.6

Given the molecule CCN(CC)CCNc1ccnc2cc3ccccc3cc12.O=P(O)(O)O , what is its reported inhibition?
9.43

Given the molecule Cc1cc(Nc2ccc(C)c(Cl)c2)n2nc(C(F)(F)F)nc2n1 , what is its reported inhibition?
17.1

Given the molecule Cc1ccc(C)c(Cn2c(N3CCC(C(=O)NCc4cccs4)CC3)nc3ccccc32)c1 , what is its reported inhibition?
-124

Given the molecule OC(CNCC1CCCO1)Cn1c2ccc(Cl)cc2c2cc(Cl)ccc21 (configuration not stated) , what is its reported inhibition?
-34.5

Given the molecule O=C(CCl)NCCOc1ccc(Cl)cc1Cl , what is its reported inhibition?
13.7

Given the molecule COc1ccc(Nc2nc(N/N=C/c3ccc(O)cc3)nc(Nc3ccc([N+](=O)[O-])cc3)n2)cc1 , what is its reported inhibition?
-4.02

Given the molecule CC(C)(C)c1ccc2c(c1)CN(Cc1ccc(Cl)cc1)CO2 , what is its reported inhibition?
-12.2

Given the molecule CCOc1cc(Cl)c(C(C)NC(=O)c2cccc(OC)c2)cc1OCC (configuration not stated) , what is its reported inhibition?
3.61

Given the molecule CN(N=O)C1=C(NC2CCCCC2)C(=O)c2ccccc2C1=O , what is its reported inhibition?
10.5

Given the molecule CCCCOc1ccc(C(=O)Nc2cc(C)on2)cc1 , what is its reported inhibition?
47.5

Given the molecule CC(C)c1ccc(CNCC(O)c2ccccc2)cc1.Cl (configuration not stated) , what is its reported inhibition?
4.92

Given the molecule O=C(Nc1ccc(CN2CCOCC2)cc1)c1ccc(-c2ccc(Br)cc2)o1 , what is its reported inhibition?
14.4

Given the molecule CCOC(=O)c1ccc2nc(-c3ccccc3)cc(O)c2c1 , what is its reported inhibition?
63.6

Given the molecule COc1cccc(Nc2nc(NCCO)c3ccccc3n2)c1.Cl , what is its reported inhibition?
-137

###

Test system: Plasmodium falciparum
Experiment: MMV: P. falciparum NF54 functionally mature Stage V gametocytes were incubated for 24 hr in the presence of the test compounds. Gamete formation was then triggered by addition of 2uM xantheurenic acid and temperature decrease to ~20C. Male gamete exflagellation was recorded and analysed by automated microscopy after 20 min. All compounds were tested in 4 independent experiments and data presented here is the mean.
Format: functional
Design: concentration or dose not given beside the values
Consider the following compounds; for each one, report its inhibition.
Field format: number, assumed %, no unit text.

Given the compound CC1CC(C)CN(C(=O)c2ccc(Cl)cc2Cl)C1 (stereo unspecified) , what is its reported inhibition?
30.8

Given the compound COc1ccc(-c2cc(=O)oc3c4c(ccc23)OCN(Cc2ccc(F)cc2)C4)cc1 , what is its reported inhibition?
-29.3

Given the compound O=C(Nc1ccccc1O)c1ccc(-c2ccc(Cl)cc2Cl)o1 , what is its reported inhibition?
18.9

Given the compound CC(C)OCc1cc(CN2CCN(c3cccc(Cl)c3)CC2)c(O)c2ncccc12 , what is its reported inhibition?
10.1

Given the compound OC(CNC1CCCC1)Cn1c2ccccc2c2ccccc21 (stereo unspecified) , what is its reported inhibition?
-4.27

Given the compound COc1ccc(OC)c(C2C3=C(CC(C)(C)CC3=O)N(c3ccc(Cl)c(Cl)c3)C3=C2C(=O)CC(C)(C)C3)c1 , what is its reported inhibition?
-60

Given the compound OC1=C2C(=Nc3ccccc3SC2c2ccc(Br)cc2)c2ccccc21 (stereo unspecified) , what is its reported inhibition?
62.9

Given the compound COc1ccc(C2N(C)c3ccccc3N2C)cc1 , what is its reported inhibition?
10.4

Given the compound Cc1sc(NC(=O)c2ccccc2)c(C(c2cccs2)N2CCN(c3ccccc3)CC2)c1C (stereo unspecified) , what is its reported inhibition?
8.21

Given the compound COc1ccc(-n2ccnc2SCC(=O)Nc2cc(C)ccc2C)c(OC)c1 , what is its reported inhibition?
12

Given the compound Cc1ccc(CSCc2ccc(C(=O)NC3CC3)o2)cc1 , what is its reported inhibition?
34.4
